Assay Remarks: Drug level in serum of OF1 mouse infected with Rhizopus microsporus FMR 3542 at 20 mg/kg, po BID for 5 days measured after 24 hrs post last dose
Assay type: ADME, organism-based
Design: dose 20 mg/kg, route oral
Particulars: read-out: Drug uptake
Recorded Metric: concentration at 24 h (ng/mL)
The answer is to be given in ng/mL; state only the numeric part.

The value of concentration at 24 h measured for the compound CC[C@@H]([C@H](C)O)n1ncn(-c2ccc(N3CCN(c4ccc(OC[C@@H]5CO[C@@](Cn6cncn6)(c6ccc(F)cc6F)C5)cc4)CC3)cc2)c1=O [POSACONAZOLE] turned out to be 2150

----------
Assay Remarks: Drug level in serum of OF1 mouse infected with Rhizopus microsporus FMR 3542 at 40 mg/kg, po QD measured after 3 hrs post last dose
Type: ADME, organism-based
Parameters: dose 40 mg/kg, route oral
Particulars: read-out: Drug uptake
Recorded Metric: concentration at 3 h
Give me the value, and tack the unit on after it.

The value of concentration at 3 h measured for the compound `CC[C@@H]([C@H](C)O)n1ncn(-c2ccc(N3CCN(c4ccc(OC[C@@H]5CO[C@@](Cn6cncn6)(c6ccc(F)cc6F)C5)cc4)CC3)cc2)c1=O` turned out to be 5310 ng/mL

----------
Assay Remarks: Drug level in serum of OF1 mouse infected with Rhizopus microsporus UTHSC 01-983 at 20 mg/kg, po BID for 5 days measured after 24 hrs post last dose
Format: ADME, organism-based
Design: dose 20 mg/kg, route oral
Particulars: read-out: Drug uptake
Recorded Metric: concentration at 24 h (ng/mL)
The answer is to be given in ng/mL; state only the numeric part.

The value of concentration at 24 h measured for the compound CC[C@@H]([C@H](C)O)n1ncn(-c2ccc(N3CCN(c4ccc(OC[C@@H]5CO[C@@](Cn6cncn6)(c6ccc(F)cc6F)C5)cc4)CC3)cc2)c1=O [POSACONAZOLE] turned out to be 2040

----------
Assay Remarks: Drug level in serum of OF1 mouse infected with Rhizopus microsporus UTHSC 01-983 at 40 mg/kg, po QD for 5 days measured after 24 hrs post last dose
Assay type: ADME, organism-based
Set-up: dose 40 mg/kg, route oral
Particulars: read-out: Drug uptake
Recorded Metric: concentration at 24 h (ng/mL)
The answer is to be given in ng/mL; state only the numeric part.

The value of concentration at 24 h measured for the compound `CC[C@@H]([C@H](C)O)n1ncn(-c2ccc(N3CCN(c4ccc(OC[C@@H]5CO[C@@](Cn6cncn6)(c6ccc(F)cc6F)C5)cc4)CC3)cc2)c1=O` turned out to be 1050

----------
Each entry below lists one item and its recorded MIC value.
Assay Remarks: Antifungal activity against Rhizopus microsporus UTHSC R-3466 by broth microdilution method
Type: functional
Give me the value, and tack the unit on after it.

Consider the worked cases shown below.
The value of MIC measured for the molecule CCC(C)n1ncn(-c2ccc(N3CCN(c4ccc(OCC5COC(Cn6cncn6)(c6ccc(Cl)cc6Cl)O5)cc4)CC3)cc2)c1=O (centres undefined) turned out to be 1 µg/mL

The value of MIC measured for the molecule `C[C@@H](c1ncncc1F)[C@](O)(Cn1cncn1)c1ccc(F)cc1F` turned out to be 4 µg/mL

The value of MIC measured for the molecule `C[C@@H]1[C@H](O)[C@@H](C)/C=C/C=C/C=C/C=C/C=C/C=C/C=C/[C@H](O[C@@H]2O[C@H](C)[C@@H](O)[C@H](N)[C@@H]2O)C[C@@H]2O[C@](O)(C[C@@H](O)C[C@@H](O)[C@H](O)CC[C@@H](O)C[C@@H](O)CC(=O)O[C@H]1C)C[C@H](O)[C@H]2C(=O)O` turned out to be 0.5 µg/mL

Pending molecule:
The value of MIC measured for the molecule CC[C@@H]([C@H](C)O)n1ncn(-c2ccc(N3CCN(c4ccc(OC[C@@H]5CO[C@@](Cn6cncn6)(c6ccc(F)cc6F)C5)cc4)CC3)cc2)c1=O [POSACONAZOLE] turned out to be 0.25 µg/mL
